The reported numbers originate from patent US5494914A.

- Measurement target: 5α-reductase (Homo sapiens)
- Sequence (P18405 whole entry): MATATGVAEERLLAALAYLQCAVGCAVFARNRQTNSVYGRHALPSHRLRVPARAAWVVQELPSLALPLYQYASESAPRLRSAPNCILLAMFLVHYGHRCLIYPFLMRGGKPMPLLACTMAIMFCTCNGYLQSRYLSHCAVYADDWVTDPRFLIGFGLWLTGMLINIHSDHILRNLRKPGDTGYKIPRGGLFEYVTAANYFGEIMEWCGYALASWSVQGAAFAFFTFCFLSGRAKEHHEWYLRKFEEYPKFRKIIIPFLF
- Test method notes: 5α-reductase inhibition in DU 145 cells (conversion of tritiated 4-androstenedione)
Assign Ki to each entry below.
Answers are plain numbers, in nM.

CC(C)CCN(C=O)[C@H]1CC[C@H]2[C@@H]3CC[C@H]4N(C)C(=O)CC[C@]4(C)[C@H]3CC[C@]12C [EM 405] ... 2.2
CNC(=O)N(C1CC1)[C@H]1CC[C@H]2[C@@H]3CC[C@H]4N(C)C(=O)CC[C@]4(C)[C@H]3CC[C@]12C [EM 373] ... 0.5
CCCCN(C=O)[C@H]1CC[C@H]2[C@@H]3CC[C@H]4N(C)C(=O)CC[C@]4(C)[C@H]3CC[C@]12C [EM 347] ... 2.6
CCCCCN(C=O)[C@H]1CC[C@H]2[C@@H]3CC[C@H]4N(C)C(=O)CC[C@]4(C)[C@H]3CC[C@]12C [EM 401] ... 1.8
CCCCCCN(C=O)[C@H]1CC[C@H]2[C@@H]3CC[C@H]4N(C)C(=O)CC[C@]4(C)[C@H]3CC[C@]12C [EM 402] ... 7.2

Below are some compounds; for each one, tell me its Ki.
1. CN1C(=O)CC[C@]2(C)[C@H]3CC[C@]4(C)[C@@H](N(C=O)Cc5ccccc5)CC[C@H]4[C@@H]3CC[C@@H]12 [EM 436]
2. CN1C(=O)CC[C@]2(C)[C@H]3CC[C@]4(C)[C@@H](N(C=O)C5CC5)CC[C@H]4[C@@H]3CC[C@@H]12 [EM 336]

# output
5.6
11.2
